biological target: human recombinant BHMT (Homo sapiens); experiment: BHMT inhibition assay; assay type: biochemical; conditions: qualitative statement
Sequence (Q93088 whole entry): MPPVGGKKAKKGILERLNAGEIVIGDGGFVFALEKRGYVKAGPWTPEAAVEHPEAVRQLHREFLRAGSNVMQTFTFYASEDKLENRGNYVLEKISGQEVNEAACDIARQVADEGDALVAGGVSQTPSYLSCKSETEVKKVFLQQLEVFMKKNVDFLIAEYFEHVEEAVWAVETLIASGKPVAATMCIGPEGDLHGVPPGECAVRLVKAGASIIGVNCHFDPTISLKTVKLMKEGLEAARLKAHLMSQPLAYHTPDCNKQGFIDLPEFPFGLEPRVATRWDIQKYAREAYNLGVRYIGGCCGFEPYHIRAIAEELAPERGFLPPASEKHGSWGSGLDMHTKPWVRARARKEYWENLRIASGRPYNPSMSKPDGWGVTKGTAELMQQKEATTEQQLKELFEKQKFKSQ
quantity: inhibition of BHMT, in words

{"compound": "NC(CCOCCCCC(=O)O)C(=O)O (racemic) [Compound 8]", "experimental-result": "almost inactive"}
{"compound": "NC(CCCCCCCC(=O)O)C(=O)O (racemic) [Compound 10, (RS)-2-Aminodecanedioic Acid]", "experimental-result": "almost inactive"}
